system: vaccinia, strain WR; experiment: microbe, parasite or virus in culture; format: cell-based; conditions: Orthopoxvirus vaccinia, Vero 76, 48 h, read-out: EC50 (concentration reducing plaque numbers by 50%)
outcome-measure: pEC50
On this scale, pEC50 is minus log10 of a concentration expressed in M (mol/L).

API: value(readout=pEC50, system=vaccinia, strain WR) for record Nc1ccn(C[C@@H](CO)OCP(=O)(O)O)c(=O)n1 [cidofovir, reference compound] 5.00
